experiment: DRUGMATRIX: Nicotinic Acetylcholine radioligand binding (ligand: [125I] Epibatidine)
Assay type: cell membranes, Membrane
condition info: imr-32; Not Active = under 50% inhibition at 10 µM; read-out: Ki
measured attribute: Ki (nM)
// units = nM; emit number, no label

Memo: C[N+](C)(C)CCOC(N)=O.[Cl-] [CARBACHOL] , reported Ki: 334

====

Documented Ki across a set of compounds
assayed target: Sigma non-opioid intracellular receptor 1 (Homo sapiens)
Sequence (Q99720 whole entry): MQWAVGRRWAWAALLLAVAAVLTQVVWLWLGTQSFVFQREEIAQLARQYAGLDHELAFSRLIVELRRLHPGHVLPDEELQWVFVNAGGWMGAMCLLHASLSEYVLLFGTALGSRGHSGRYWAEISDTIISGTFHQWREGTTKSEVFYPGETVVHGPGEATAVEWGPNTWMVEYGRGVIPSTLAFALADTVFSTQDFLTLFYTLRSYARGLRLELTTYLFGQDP
experiment: DRUGMATRIX: Sigma1 radioligand binding (ligand: [3H] Haloperidol)
Type: cell membranes, Jurkat, Membrane
condition info: Not Active = under 50% inhibition at 10 µM; read-out: Ki
Reply numerically in nM, unit not repeated.

Some entries whose results are on file:
- CC(CN1c2ccccc2Sc2ccccc21)N(C)C (stereo unspecified): 120
- CN(Cc1cc(Br)cc(Br)c1N)C1CCCCC1: 25
- CN(C)CCC=C1c2ccccc2COc2ccccc21 [DOXEPIN]: 265
- CC(C)(C)NC[C@H](O)COc1cccc2c1CCCC2=O: 325

Query CC#C[C@]1(O)CC[C@H]2[C@@H]3CCC4=CC(=O)CCC4=C3[C@@H](c3ccc(N(C)C)cc3)C[C@@]21C on Sigma non-opioid intracellular receptor 1 (Homo sapiens); Ki returned: 11000

Summary: CCOc1cc(N)c(Cl)cc1C(=O)NCC1CN(Cc2ccc(F)cc2)CCO1 (stereo unspecified) [MOSAPRIDE] , Sigma non-opioid intracellular receptor 1 (Homo sapiens), Ki = 128

====

assayed target: UniProt P32238
Sequence (P32238 whole entry): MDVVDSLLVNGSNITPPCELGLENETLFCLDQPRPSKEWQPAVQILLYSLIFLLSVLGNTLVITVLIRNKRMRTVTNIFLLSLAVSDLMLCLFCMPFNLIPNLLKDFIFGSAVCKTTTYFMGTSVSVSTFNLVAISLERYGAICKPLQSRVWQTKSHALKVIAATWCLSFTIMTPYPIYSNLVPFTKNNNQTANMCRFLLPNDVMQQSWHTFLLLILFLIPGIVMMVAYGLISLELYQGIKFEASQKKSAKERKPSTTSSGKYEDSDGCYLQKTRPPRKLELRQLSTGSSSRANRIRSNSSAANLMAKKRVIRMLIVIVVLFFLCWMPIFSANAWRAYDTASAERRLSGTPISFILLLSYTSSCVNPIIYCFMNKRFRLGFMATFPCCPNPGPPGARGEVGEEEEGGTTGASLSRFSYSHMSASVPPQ
Type: cell membranes, Membrane
condition info: 1321-n1
measured attribute: IC50

Reference set, count: 4
* CCN(CC)CCNC(=O)c1cc(Cl)c(N)cc1OC [METOCLOPRAMIDE] | Not Active
* Cc1[nH]c(=O)c(C#N)cc1-c1ccncc1 | Not Active
* C=CCc1ccc2c(c1)OCO2 | Not Active
* Cc1cnc(NC(=O)C2=C(O)c3ccccc3S(=O)(=O)N2C)s1 | Not Active

// moving on: another record for IC50
response.value for Cc1cc(C(C)(C)C)c(O)c(C)c1CC1=NCCN1 (field: IC50) = Not Active

====

experiment: DRUGMATRIX: Leukotriene, BLT (LTB4) radioligand binding (ligand: [3H]LTB4)
Type: cell membranes, Membrane
condition info: u-937; Not Active = under 50% inhibition at 10 µM
measured attribute: Ki

• CC[C@@]1(O)C(=O)OCc2c1cc1n(c2=O)Cc2cc3c(CN(C)C)c(O)ccc3nc2-1 = Not Active
• O=C(O)CO = Not Active
• Cc1ccnc2c1NC(=O)c1cccnc1N2C1CC1 = Not Active

====

assayed target: Cytochrome P450 2E1 (Homo sapiens); also: in other assays of this panel Not Active means under 50% inhibition at 10 µM
Sequence (P05181 whole entry): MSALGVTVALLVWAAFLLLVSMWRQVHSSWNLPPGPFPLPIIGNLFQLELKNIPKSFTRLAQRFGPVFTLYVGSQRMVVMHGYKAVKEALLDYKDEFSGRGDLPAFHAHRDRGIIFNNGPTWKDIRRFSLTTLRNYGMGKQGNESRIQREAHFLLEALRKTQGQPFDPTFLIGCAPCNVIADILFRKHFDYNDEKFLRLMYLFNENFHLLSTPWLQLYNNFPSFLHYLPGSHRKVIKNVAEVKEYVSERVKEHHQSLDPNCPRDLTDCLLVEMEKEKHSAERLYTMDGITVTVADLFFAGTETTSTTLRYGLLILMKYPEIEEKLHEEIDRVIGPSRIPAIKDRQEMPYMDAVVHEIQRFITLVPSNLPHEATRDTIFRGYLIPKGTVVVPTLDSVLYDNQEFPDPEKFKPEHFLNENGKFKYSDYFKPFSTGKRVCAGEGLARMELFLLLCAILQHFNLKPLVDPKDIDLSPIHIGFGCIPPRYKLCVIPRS
condition info: bti-tn-5b1-4
measured attribute: IC50

# count of solved cases: 8
- C=CCO: Not Active
- Cc1nnc(NS(=O)(=O)c2ccc(N)cc2)s1: Not Active
- COC(=O)Nc1nc2ccc(C(=O)c3ccccc3)cc2[nH]1: Not Active
- CCN(CC)N=O: Not Active
- CCN(CC)CCNC(=O)c1cc(Cl)c(N)cc1OC [METOCLOPRAMIDE]: Not Active
- NC(=O)CN1CCCC1=O: Not Active
- O=C(c1ccccc1)c1ccc2n1CCC2C(=O)O (stereo not given): Not Active
- Nc1nc(F)nc2c1ncn2[C@@H]1O[C@H](CO)[C@@H](O)[C@@H]1O: Not Active

For record O=C1CC[C@@]2(O)[C@H]3Cc4ccc(O)c5c4[C@@]2(CCN3CC2CC2)[C@H]1O5 [NALTREXONE] the listed IC50 is Not Active

Briefly, IC50 measured for COc1ccccc1OCCNCC(O)COc1cccc2[nH]c3ccccc3c12 (stereo not given) : Not Active
